Target Or Test System: UniProt:P22303
Sequence (P22303 whole entry): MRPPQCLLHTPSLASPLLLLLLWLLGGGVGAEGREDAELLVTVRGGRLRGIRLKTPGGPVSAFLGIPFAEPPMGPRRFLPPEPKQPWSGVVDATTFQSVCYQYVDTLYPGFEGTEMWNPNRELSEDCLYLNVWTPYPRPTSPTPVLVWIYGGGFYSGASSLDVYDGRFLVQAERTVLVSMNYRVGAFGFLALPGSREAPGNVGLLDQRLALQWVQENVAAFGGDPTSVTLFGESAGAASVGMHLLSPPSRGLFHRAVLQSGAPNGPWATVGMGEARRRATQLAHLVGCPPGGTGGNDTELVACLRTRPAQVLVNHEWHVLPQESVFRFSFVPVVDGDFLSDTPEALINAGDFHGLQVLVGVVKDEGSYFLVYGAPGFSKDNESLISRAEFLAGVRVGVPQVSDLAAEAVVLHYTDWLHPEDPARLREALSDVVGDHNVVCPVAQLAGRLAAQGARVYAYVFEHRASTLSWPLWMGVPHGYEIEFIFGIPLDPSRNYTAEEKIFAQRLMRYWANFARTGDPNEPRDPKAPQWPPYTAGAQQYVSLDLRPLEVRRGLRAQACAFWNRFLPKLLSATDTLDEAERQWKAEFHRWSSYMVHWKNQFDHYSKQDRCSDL
Attribute Measured: IC50

{"columns": ["Molecule", "Target Or Test System", "Attribute Measured", "Meas Value"],
 "data": [
  ["CCOC(=O)C1=C(C)Oc2nc3c(c(N)c2C1c1ccc(OC)cc1)CCCC3 (stereo unspecified)", "UniProt:P22303", "IC50", "182 to 868 nM"]
]}
